# MEASUREMENT_NOTES: Pharmacokinetic experiments in rats (IV, oral suspension, oral solution)
# Assay type: in vivo
# DETAILS: male, rat, plasma, po, 20 mg/kg, Group 3, PO-Suspension 20 mg/kg, individual animals, read-out: Cmax
OBSERVABLE: Cmax
Kindly format the answer as number then unit.

So for `O=C(NNc1nc2cc(F)ccc2n2cccc12)c1cnccn1.O=C(O)C(=O)O` , the logged Cmax turned out to be 525 ng/mL

###

# MEASUREMENT_NOTES: Pharmacokinetic experiments in rats (IV, oral suspension, oral solution)
# Type: in vivo
# DETAILS: male, rat, plasma, oral, 20 mg/kg, Group 2, PO-Suspension 20 mg/kg, 4 hr, Mean
OBSERVABLE: concentration at 4 h

So for O=C(NNc1nc2cc(F)ccc2n2cccc12)c1cnccn1 [NVX-144, reference compound] , the logged concentration at 4 h turned out to be 227 ng/mL
